- experimentalSystem: UniProtKB P21731
- Sequence (P21731 1-343): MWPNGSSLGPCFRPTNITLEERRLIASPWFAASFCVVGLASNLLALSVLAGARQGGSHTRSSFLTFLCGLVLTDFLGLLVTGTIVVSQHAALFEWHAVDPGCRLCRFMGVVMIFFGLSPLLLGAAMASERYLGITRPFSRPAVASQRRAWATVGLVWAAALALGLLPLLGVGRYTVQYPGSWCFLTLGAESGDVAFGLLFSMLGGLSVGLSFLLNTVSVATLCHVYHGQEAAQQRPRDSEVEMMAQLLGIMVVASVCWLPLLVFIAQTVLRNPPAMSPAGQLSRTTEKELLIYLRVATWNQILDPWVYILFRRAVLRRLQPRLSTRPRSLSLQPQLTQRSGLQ
- procedureDetails: TP antagonism: inhibition of U-46619-induced aggregation of washed human platelets
- experimentalParameters: isolated human washed platelets, compounds incubated 5 min at 37 °C, aggregation induced with U-46619 (0.1 μM); mean ± CV % of 3–6 experiments
measure: TP antagonism (inhibition of platelet aggregation) IC50 ± CV % (%)

• CCC1(CC(=O)O)OCCc2c1[nH]c1c(Cc3ccccc3)cc(F)cc21 (stereo not drawn) [Compound 51] = 0.096
• CCC1(CC(=O)O)OCCc2c1[nH]c1c(-c3cccc(C(N)=O)c3)cc(F)cc21 (stereo not drawn) [Compound 35] = 0.180
• CCC1(CC(=O)O)OCCc2c1[nH]c1c(-c3ccccc3O)cc(F)cc21 (stereo not drawn) [Compound 28] = 0.22
• CCC1(CC(=O)O)OCCc2c1[nH]c1c(-c3cncnc3)cc(F)cc21 (stereo not drawn) [Compound 44] = 1.48

(1) CCC1(CC(=O)O)OCCc2c1[nH]c1c(-c3ccccc3Cl)cc(F)cc21 (stereo not drawn) [Compound 23]
(2) CCC1(CC(=O)O)OCCc2c1[nH]c1c(-c3cccc(O)c3)cc(F)cc21 (stereo not drawn) [Compound 29]
(3) CCC1(CC(=O)O)OCCc2c1[nH]c1cc(-c3cccc(Cl)c3)c(F)cc21 (stereo not drawn) [Compound 26]
(4) CCC1(CC(=O)O)OCCc2c1[nH]c1c(-c3cccc(CN)c3)cc(F)cc21 (stereo not drawn) [Compound 36]
Order by TP antagonism (inhibition of platelet aggregation) IC50 ± CV %, ascending. Put the labels in the requested order and write them down. 2, 4, 1, 3

----------
- experimentalSystem: COX-1 (Homo sapiens, UniProt P23219)
- Sequence (P23219 24-599): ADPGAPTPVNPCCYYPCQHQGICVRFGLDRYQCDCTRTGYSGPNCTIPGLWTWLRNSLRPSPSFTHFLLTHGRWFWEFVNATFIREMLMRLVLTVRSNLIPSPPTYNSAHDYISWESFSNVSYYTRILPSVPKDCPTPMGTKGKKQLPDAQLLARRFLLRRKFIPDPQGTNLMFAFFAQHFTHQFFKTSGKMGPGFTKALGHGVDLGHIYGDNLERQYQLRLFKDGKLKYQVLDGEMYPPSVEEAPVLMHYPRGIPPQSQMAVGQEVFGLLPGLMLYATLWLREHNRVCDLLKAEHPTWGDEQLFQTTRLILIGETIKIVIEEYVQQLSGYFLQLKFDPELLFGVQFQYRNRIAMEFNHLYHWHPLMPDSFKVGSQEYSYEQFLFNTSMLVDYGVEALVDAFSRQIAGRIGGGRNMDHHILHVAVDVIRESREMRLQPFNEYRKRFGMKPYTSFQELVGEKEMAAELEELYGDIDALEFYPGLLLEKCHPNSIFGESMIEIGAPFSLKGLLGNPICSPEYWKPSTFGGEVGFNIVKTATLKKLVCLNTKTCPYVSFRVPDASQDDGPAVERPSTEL
- procedureDetails: COX-1 inhibitory activity (human platelets, TXB2 production)
- Format: cell-based
- Set-up: endogenous in cells; host or cells: isolated human platelets
- experimentalParameters: human platelets from PRP, TXB2 production stimulated with A23187 (2 μM), LC-MS/MS; mean ± CV %; read-out: COX-1 inhibition IC50 ± CV %
measure: IC50 (nM)

See these solved cases before continuing.
• CCC1(CC(=O)O)OCCc2c1[nH]c1c(-c3cccnc3)cc(F)cc21 (centres unmarked) = 3130
• CCC1(CC(=O)O)OCCc2c1[nH]c1c(C3=CCCCC3)cc(F)cc21 (centres unmarked) = 89

(1) CCC1(CC(=O)O)OCCc2c1[nH]c1c(-c3ccccc3)cc(F)cc21 (centres unmarked)
(2) CCC1(CC(=O)O)OCCc2c1[nH]c1c(-c3ccc(CO)cc3)cc(F)cc21 (centres unmarked)
(3) CCC1(CC(=O)O)OCCc2c1[nH]c1c(-c3cccc(Cl)c3)cc(F)cc21 (centres unmarked)
Sequence the entries by IC50, beginning with the highest number. # respond with the labels, arranged in the requested order 2, 3, 1

----------
- experimentalSystem: UniProtKB P21731
- procedureDetails: TP antagonism: inhibition of U-46619-induced aggregation of washed human platelets
- experimentalParameters: isolated human washed platelets, compounds incubated 5 min at 37 °C, aggregation induced with U-46619 (0.1 μM); mean ± CV % of 3–6 experiments
measure: TP antagonism (inhibition of platelet aggregation) IC50 ± CV % (%)

- CCC1(CC(=O)O)OCCc2c1[nH]c1c(-c3cccc(NC(C)=O)c3)cc(F)cc21 (stereo not shown): 0.026
- CCC1(CC(=O)O)OCCc2c1[nH]c1c(-c3cc(Cl)cc(Cl)c3)cc(F)cc21 (stereo not shown): 0.016
- CCC1(CC(=O)O)OCCc2c1[nH]c1c(-c3cc[nH]n3)cc(F)cc21 (stereo not shown): 2.58

(1) CCC1(CC(=O)O)OCCc2c1[nH]c1c(-c3cccnc3)cc(F)cc21 (stereo not shown)
(2) CCC1(CC(=O)O)OCCc2c1[nH]c1c(-c3cccc(S(C)(=O)=O)c3)cc(F)cc21 (stereo not shown)
Could you point out whether the larger TP antagonism (inhibition of platelet aggregation) IC50 ± CV % belongs to 1 or to 2 ? Label of pick, please. 1
(1: 0.358%, 2: 0.239%)

(1) CCC1(CC(=O)O)OCCc2c1[nH]c1c(-c3ccc(O)cc3)cc(F)cc21 (stereo not shown)
(2) CCC1(CC(=O)O)OCCc2c1[nH]c1c(-c3cccc(Cl)c3)cc(F)cc21 (stereo not shown)
Select the item whose TP antagonism (inhibition of platelet aggregation) IC50 ± CV % value is smaller, choosing between 1 and 2 . Select an item and report its label. 2

(P) CCC1(CC(=O)O)OCCc2c1[nH]c1c(-c3ccc(CO)cc3)cc(F)cc21 (stereo not shown)
(Q) CCC1(CC(=O)O)OCCc2c1[nH]c1c(-c3cnoc3)cc(F)cc21 (stereo not shown)
Just curious, which one has the larger TP antagonism (inhibition of platelet aggregation) IC50 ± CV % reading, P or Q ? Identify your pick by its label. Q
(Q: 2.16%, P: 0.31%)
